molecular target: canine FcRn complex (FcRn-alpha subunit and beta-microglobulin), His-tagged, biotin labeled (canine); experiment: SPR (Biacore), biotin-FcRn captured on SA surface, IgG flowed over, pH 6, 15 C
pKd: −log10 of the molar value.

binder	pKd
canine IgGB (65) mAb with mutation Y436T (antibody, part only; not given: Variable domains, not shown: another chain or arm of the molecule) constant: ASTTAPSVFPLAPSCGSTSGSTVALACLVSGYFPEPVTVSWNSGSLTSGVHTFPSVLQSSGLYSLSSMVTVPSSRWPSETFTCNVAHPASKTKVDKPVPKRENGRVPRPPDCPKCPAPEMLGGPSVFIFPPKPKDTLLIARTPEVTCVVVDLDPEDPEVQISWFVDGKQMQTAKTQPREEQFNGTYRVVSVLPIGHQDWLKGKQFTCKVNNKALPSPIERTISKARGQAHQPSVYVLPPSREELSKNTVSLTCLIKDFFPPDIDVEWQSNGQQEPESKYRTTPPQLDEDGSYFLYSKLSVDKSRWQRGDTFICAVMHEALHNHTTQESLSHSPGK	8.06
canine IgGB (65) mAb with mutation Y436F (antibody, part only; not given: Variable domains, not shown: another chain or arm of the molecule) constant: ASTTAPSVFPLAPSCGSTSGSTVALACLVSGYFPEPVTVSWNSGSLTSGVHTFPSVLQSSGLYSLSSMVTVPSSRWPSETFTCNVAHPASKTKVDKPVPKRENGRVPRPPDCPKCPAPEMLGGPSVFIFPPKPKDTLLIARTPEVTCVVVDLDPEDPEVQISWFVDGKQMQTAKTQPREEQFNGTYRVVSVLPIGHQDWLKGKQFTCKVNNKALPSPIERTISKARGQAHQPSVYVLPPSREELSKNTVSLTCLIKDFFPPDIDVEWQSNGQQEPESKYRTTPPQLDEDGSYFLYSKLSVDKSRWQRGDTFICAVMHEALHNHFTQESLSHSPGK	8.01
canine IgGB (65) mAb with mutation D312T (antibody, part only; not given: Variable domains, not shown: another chain or arm of the molecule) constant: ASTTAPSVFPLAPSCGSTSGSTVALACLVSGYFPEPVTVSWNSGSLTSGVHTFPSVLQSSGLYSLSSMVTVPSSRWPSETFTCNVAHPASKTKVDKPVPKRENGRVPRPPDCPKCPAPEMLGGPSVFIFPPKPKDTLLIARTPEVTCVVVDLDPEDPEVQISWFVDGKQMQTAKTQPREEQFNGTYRVVSVLPIGHQTWLKGKQFTCKVNNKALPSPIERTISKARGQAHQPSVYVLPPSREELSKNTVSLTCLIKDFFPPDIDVEWQSNGQQEPESKYRTTPPQLDEDGSYFLYSKLSVDKSRWQRGDTFICAVMHEALHNHYTQESLSHSPGK	7.97
canine IgGB (65) mAb with mutation Q311K (antibody, part only; not given: Variable domains, not shown: another chain or arm of the molecule) constant: ASTTAPSVFPLAPSCGSTSGSTVALACLVSGYFPEPVTVSWNSGSLTSGVHTFPSVLQSSGLYSLSSMVTVPSSRWPSETFTCNVAHPASKTKVDKPVPKRENGRVPRPPDCPKCPAPEMLGGPSVFIFPPKPKDTLLIARTPEVTCVVVDLDPEDPEVQISWFVDGKQMQTAKTQPREEQFNGTYRVVSVLPIGHKDWLKGKQFTCKVNNKALPSPIERTISKARGQAHQPSVYVLPPSREELSKNTVSLTCLIKDFFPPDIDVEWQSNGQQEPESKYRTTPPQLDEDGSYFLYSKLSVDKSRWQRGDTFICAVMHEALHNHYTQESLSHSPGK	8.21
